Reference for the values: patent US20220017629A1

Attribute: percentage of competition
Target: T1, OX40 (antigen of the competitive ELISA of Example 5) (UniProt P43489 29-214)
T1 sequence (looked up): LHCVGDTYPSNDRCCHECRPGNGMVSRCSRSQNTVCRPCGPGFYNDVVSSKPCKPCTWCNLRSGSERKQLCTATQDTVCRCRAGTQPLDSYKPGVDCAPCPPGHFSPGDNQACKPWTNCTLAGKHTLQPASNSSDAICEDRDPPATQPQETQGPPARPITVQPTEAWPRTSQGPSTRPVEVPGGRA
Assay: competitive ELISA; competitor PF-04518600
// return numeric value only (unit: %, not printed)

| Binder | percentage of competition, % |
| --- | --- |
| MAb064 (antibody, IgG2c, V domains shown) VH: QVQLKESGPGLVAPSQTLSITCSVSGFSLTNYAVSWVRQPPGKGLEWLGVMWGDGNTNYHSTLISRLSISKDNSKSQVFLKLNSLQTDDTATYYCARSSGWYFDVWGTGTTVTVSS VL: DIQMTQTTPSLSVTLGDRVTIRCRASQDINNYLNWYQQKPDGTVKLLIYYTSESRSGVPSRFSGSGSGTDYSLTISNLEQEDIATYFCQQGYALPPAFGGGTKLEIK | 4 |
| MAb047 (antibody, IgG2c, V domains shown) VH: EVQLVESGGGLVKPGGSLKLSCAASGFTFSDYGMYWIRQAPEKGLEWVAYISNGGSSIYYADTVKGRFTVSRDNAKNTLFLQMTSLRSEDTAIYYCARGGELGFAYWGQGTLVTVSA VL: DIQMTQSPASLSVSVGETVTITCRASENIYSNLAWYQQKQGKSPQLLVYAAINLVEGVPSRFSGSGSGTQYSLKINSLQSEDFGSYFCQHFWGLPYTFGGGTKLE | -2 |
| MAb041 (antibody, IgG1, V domains shown) VH: EVQLVESGGGLVKPGGSLKLSCAVSGFTFSNSAMSWVRQTPEKRLEWVATITDGGDYTYYSDNVKGRFTISRDNAKNNLYLQMSHLKSEDTAMYYCVRGISYWGQGTLVTVS VL: DIVLTQSPASLAVSLGQRATISCRASKSVSTSSDSYMHWYQQKPGQPPKLLIKYASNLESGVPVRFSGSGSGTDFTLNIHPVEEEDAATYYCQHSREFPWTFGGGTKLEIK | -8 |
| MAb034 (antibody, IgG1, V domains shown) VH: EVQLQQSGPVLVKPGASVKMSCKASGYTFTDFYMNWMRQSHGKSLEWIGVIDPYNGNTSYNQKFKGKATLTVDKSSSTAYMELNSLTSEDSAVYYCARGNYYYYAMDYWGQGTSVTVSS VL: DIVLTQSPASLAVSLGQRATISCRASESVSIHGTHLMYWYQQKPGQPPKLLIYAASNLESGVPARFSGSGSETDFTLNIHPVEEEDAATFFCQQSIEDPPTFGGGTKLEIK | 5 |
| MAb049 (antibody, IgG1, V domains shown) VH: EVQLQQSGPELVKPGASVKISCKASGHTLTDYYMNWVKQSHGKSPEWIGDINPNNDGIDYNQKFRGKAILTVDKSSSSFYMELRSLTSEDSAVYYCVGFVRGYFVSWGQGTTLTVSS VL: DIQMTQTTSSLSASLGDRVTINCRASQDISNYLNWYQQKPDGTVKLLIYYTSRLRSGVPSRFSGSGSGTDYSLTINNLDQEDFATYFCQQGNTLPWTFGGGTKLEI | -2 |

Tell me the measured percentage of competition of MAb033 (antibody, IgG1, V domains shown) VH: QVQLQQSGAELVRPGTAVRVSCKASGYAFTNYFIEWVKQRPGQGLEWIGVINPGSGDTYYSEKFQGKATLTADKSSSTAYMQLSSLTSEDSAVYFCAREDDYSWFTYWGQGTLVTVSA VL: DIVLTQSPASLAVSLGQRATISCRASENVDNYGISFMHWYRQKPGQPPKLLIYRASNLESGIPARFSGSGSRTDFTLTINPVETDDVATYYCQQSNKDPYTFGGGTKLEIK , please.
-7

Tell me the measured percentage of competition of MAb035 (antibody, IgG1, V domains shown) VH: QVQLQQSGAELVRPGASVTLSCKASDYTFTDYEMHWVYQTPVHGLEWIGAIDPETGGTAYNQKFKDKAILTADKSSNTAYMELRSLTSEDSAVYFCTKTGYQFDYWGQGTTLTVSS VL: DIVMTQSQKFMSTSVGDRVSVTCKASQNVGSNVAWYQQKPGQSPKALIYSASYRYSGVPDRFAGSGSGTDFTLTISNVQSEDLADYFCQQYNSHPYTFGGGTKLEIK , please.
-5
